pKi: −log10 of the molar value.
A short record of pKi observed with Carbonic anhydrase 1 (Homo sapiens) follows.
Sequence (P00915 whole entry): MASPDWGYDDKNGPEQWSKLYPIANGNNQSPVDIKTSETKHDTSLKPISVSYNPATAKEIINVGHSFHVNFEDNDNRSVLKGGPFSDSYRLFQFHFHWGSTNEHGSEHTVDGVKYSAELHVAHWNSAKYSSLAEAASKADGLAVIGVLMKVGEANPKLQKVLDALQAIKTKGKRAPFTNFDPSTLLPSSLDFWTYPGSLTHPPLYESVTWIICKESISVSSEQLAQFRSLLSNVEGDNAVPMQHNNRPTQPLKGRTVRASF

smilesText	pKi
NS(=O)(=O)c1ccccc1NS(=O)(=O)C(F)(F)F	3.76
NS(=O)(=O)c1ccc(NS(=O)(=O)C(F)(F)C(F)(F)C(F)(F)C(F)(F)C(F)(F)C(F)(F)C(F)(F)C(F)(F)F)c(Cl)c1	5.61
NS(=O)(=O)c1nc2ccc(NC(=O)C(F)(F)C(F)(F)C(F)(F)C(F)(F)C(F)(F)C(F)(F)C(F)(F)C(F)(F)F)cc2s1	7.35
NS(=O)(=O)c1ccc(CCOS(=O)(=O)C(F)(F)F)cc1	4.10
NS(=O)(=O)c1cc(S(N)(=O)=O)c(NC(=O)C(F)(F)C(F)(F)C(F)(F)C(F)(F)C(F)(F)C(F)(F)C(F)(F)C(F)(F)F)cc1Cl	6.09
NS(=O)(=O)c1ccc(CCOC(=O)C(F)(F)C(F)(F)C(F)(F)C(F)(F)C(F)(F)C(F)(F)C(F)(F)C(F)(F)F)cc1	4.70
NS(=O)(=O)c1ccc(Nc2ccnc(NS(=O)(=O)C(F)(F)F)n2)cc1	5.10
NS(=O)(=O)c1cc(S(N)(=O)=O)c(NS(=O)(=O)C(F)(F)F)cc1Cl	6.26
NS(=O)(=O)c1ccc(Nc2ccnc(NC(=O)C(F)(F)C(F)(F)C(F)(F)C(F)(F)C(F)(F)C(F)(F)C(F)(F)C(F)(F)F)n2)cc1	5.36
NS(=O)(=O)c1nc2ccc(OS(=O)(=O)C(F)(F)F)cc2s1	7.26
NS(=O)(=O)c1ccc(NC(=O)c2c(F)c(F)c(F)c(F)c2F)c(F)c1	6.12
NS(=O)(=O)c1nc2ccc(OCCOS(=O)(=O)C(F)(F)C(F)(F)C(F)(F)C(F)(F)F)cc2s1	7.72
NS(=O)(=O)c1nc2ccc(OS(=O)(=O)C(F)(F)C(F)(F)C(F)(F)C(F)(F)F)cc2s1	7.54
NS(=O)(=O)c1cc(S(N)(=O)=O)c(NS(=O)(=O)C(F)(F)C(F)(F)C(F)(F)C(F)(F)F)c(Cl)c1Cl	5.29

====

pKi: −log10 of the molar value.
Below are pKi values recorded for Carbonic anhydrase 1 (Homo sapiens, UniProt P00915).

smilesText	pKi
NS(=O)(=O)c1nnc(NS(=O)(=O)c2ccc(NS(=O)(=O)C(F)(F)F)cc2)s1	6.00
NS(=O)(=O)c1nnc(NS(=O)(=O)c2ccc(NS(=O)(=O)C(F)(F)C(F)(F)C(F)(F)C(F)(F)F)cc2)s1	6.05
NS(=O)(=O)c1ccc(NC(=O)c2c(F)c(F)c(F)c(F)c2F)c(Br)c1	5.73
NS(=O)(=O)c1nnc(NS(=O)(=O)C(F)(F)C(F)(F)C(F)(F)C(F)(F)C(F)(F)C(F)(F)C(F)(F)C(F)(F)F)s1	6.40
NS(=O)(=O)c1ccc(NS(=O)(=O)C(F)(F)F)c(Cl)c1	3.74
NS(=O)(=O)c1nc2ccc(OCCOS(=O)(=O)c3c(F)c(F)c(F)c(F)c3F)cc2s1	7.74

====

pKi: −log10 of the molar value.
System: Carbonic anhydrase 1 (Homo sapiens) | Read-out: pKi
readout: pKi

smilesText	readout	assayValue
NS(=O)(=O)c1ccc(COS(=O)(=O)C(F)(F)F)cc1	pKi	3.87
NS(=O)(=O)c1nc2ccc(NS(=O)(=O)C(F)(F)C(F)(F)C(F)(F)C(F)(F)F)cc2s1	pKi	7.27
NS(=O)(=O)c1ccc(NS(=O)(=O)c2c(F)c(F)c(F)c(F)c2F)c(I)c1	pKi	5.76
NS(=O)(=O)c1ccc(NS(=O)(=O)c2c(F)c(F)c(F)c(F)c2F)c(F)c1	pKi	6.15
NS(=O)(=O)c1nc2ccc(OCCOS(=O)(=O)C(F)(F)F)cc2s1	pKi	7.30
NS(=O)(=O)c1nnc(NS(=O)(=O)C(F)(F)F)s1	pKi	4.22
NS(=O)(=O)c1cc(S(N)(=O)=O)c(NS(=O)(=O)c2c(F)c(F)c(F)c(F)c2F)c(Cl)c1Cl	pKi	5.82
NS(=O)(=O)c1ccccc1NS(=O)(=O)C(F)(F)C(F)(F)C(F)(F)C(F)(F)F	pKi	4.66
NS(=O)(=O)c1cc(S(N)(=O)=O)c(NS(=O)(=O)C(F)(F)C(F)(F)C(F)(F)C(F)(F)C(F)(F)C(F)(F)C(F)(F)C(F)(F)F)c(Cl)c1Cl	pKi	5.10
Cn1nc(S(N)(=O)=O)s/c1=N/C(=O)C(F)(F)C(F)(F)C(F)(F)C(F)(F)C(F)(F)C(F)(F)C(F)(F)C(F)(F)F	pKi	6.48
NS(=O)(=O)c1ccc(CNS(=O)(=O)c2c(F)c(F)c(F)c(F)c2F)cc1	pKi	6.10
NS(=O)(=O)c1ccc(NS(=O)(=O)c2c(F)c(F)c(F)c(F)c2F)c(Cl)c1	pKi	5.84

====

Below are Ki values measured for UniProt:P00915.

smilesText	Ki (nM)
NS(=O)(=O)c1nnc(NC(=O)C(F)(F)C(F)(F)C(F)(F)C(F)(F)C(F)(F)C(F)(F)C(F)(F)C(F)(F)F)s1	300
Cn1nc(S(N)(=O)=O)s/c1=N/S(=O)(=O)c1ccc(NS(=O)(=O)C(F)(F)F)cc1	1000
NS(=O)(=O)c1ccc(CCOS(=O)(=O)c2c(F)c(F)c(F)c(F)c2F)cc1	300
NS(=O)(=O)c1nnc(NC(=O)CCNS(=O)(=O)C(F)(F)C(F)(F)C(F)(F)C(F)(F)C(F)(F)C(F)(F)C(F)(F)C(F)(F)F)s1	300

====

# measuredTarget: Carbonic anhydrase 4 (Bos taurus, UniProt Q95323)
# Sequence (Q95323 whole entry): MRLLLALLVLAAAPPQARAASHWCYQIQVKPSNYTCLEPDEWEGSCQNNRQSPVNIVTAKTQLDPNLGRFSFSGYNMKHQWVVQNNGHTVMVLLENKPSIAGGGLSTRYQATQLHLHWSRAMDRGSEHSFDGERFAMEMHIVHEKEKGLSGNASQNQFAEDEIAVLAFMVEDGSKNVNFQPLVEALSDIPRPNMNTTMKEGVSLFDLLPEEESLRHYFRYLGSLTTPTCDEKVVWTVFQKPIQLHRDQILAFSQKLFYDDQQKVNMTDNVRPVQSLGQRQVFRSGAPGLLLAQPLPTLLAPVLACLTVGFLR
The compounds listed here are annotated with their log10 Ki.
readout: log10 Ki (log10 of the value in nM)

smilesText	log10 Ki
NS(=O)(=O)c1ccc(NS(=O)(=O)c2ccc(NS(=O)(=O)C(F)(F)C(F)(F)C(F)(F)C(F)(F)F)cc2)cc1	1.49
NS(=O)(=O)c1ccc(NS(=O)(=O)C(F)(F)C(F)(F)C(F)(F)C(F)(F)F)c(Cl)c1	2.94
NS(=O)(=O)c1ccc(CCNS(=O)(=O)C(F)(F)C(F)(F)C(F)(F)C(F)(F)C(F)(F)C(F)(F)C(F)(F)C(F)(F)F)cc1	2.67
NS(=O)(=O)c1cccc(NC(=O)C(F)(F)C(F)(F)C(F)(F)C(F)(F)C(F)(F)C(F)(F)C(F)(F)C(F)(F)F)c1	2.97
NS(=O)(=O)c1cccc(NS(=O)(=O)C(F)(F)C(F)(F)C(F)(F)C(F)(F)F)c1	2.77
NS(=O)(=O)c1ccc(CCNC(=O)C(F)(F)C(F)(F)C(F)(F)C(F)(F)C(F)(F)C(F)(F)C(F)(F)C(F)(F)F)cc1	2.72
NS(=O)(=O)c1ccc(COS(=O)(=O)C(F)(F)C(F)(F)C(F)(F)C(F)(F)F)cc1	4.03
NS(=O)(=O)c1ccc(COS(=O)(=O)c2c(F)c(F)c(F)c(F)c2F)cc1	2.00

====

# Carbonic anhydrase 1 (Homo sapiens): log10(Ki) values follow
readout: log10(Ki) (log10 of the value in µM)

smilesText	log10(Ki)
NS(=O)(=O)c1cccc(NC(=O)C(F)(F)C(F)(F)C(F)(F)C(F)(F)C(F)(F)C(F)(F)C(F)(F)C(F)(F)F)c1	0.20
NS(=O)(=O)c1ccc(NC(=O)C(F)(F)C(F)(F)C(F)(F)C(F)(F)C(F)(F)C(F)(F)C(F)(F)C(F)(F)F)c(Br)c1	0.40
NS(=O)(=O)c1ccc(NNS(=O)(=O)c2c(F)c(F)c(F)c(F)c2F)cc1	0.00
Cn1nc(S(N)(=O)=O)sc1=NS(=O)(=O)c1c(F)c(F)c(F)c(F)c1F	-0.60
NS(=O)(=O)c1ccc(NS(=O)(=O)c2ccc(NC(=O)c3c(F)c(F)c(F)c(F)c3F)cc2)cc1	0.82
NS(=O)(=O)c1cccc(NS(=O)(=O)C(F)(F)C(F)(F)C(F)(F)C(F)(F)C(F)(F)C(F)(F)C(F)(F)C(F)(F)F)c1	0.15
NS(=O)(=O)c1cccc(NS(=O)(=O)C(F)(F)F)c1	2.27
NS(=O)(=O)c1ccc(NS(=O)(=O)C(F)(F)C(F)(F)C(F)(F)C(F)(F)F)cc1	1.18
NS(=O)(=O)c1ccc(Nc2ccnc(NS(=O)(=O)C(F)(F)C(F)(F)C(F)(F)C(F)(F)C(F)(F)C(F)(F)C(F)(F)C(F)(F)F)n2)cc1	0.65
NS(=O)(=O)c1ccc(NS(=O)(=O)c2ccc(NS(=O)(=O)C(F)(F)C(F)(F)C(F)(F)C(F)(F)C(F)(F)C(F)(F)C(F)(F)C(F)(F)F)cc2)cc1	0.48
NS(=O)(=O)c1cccc(NS(=O)(=O)C(F)(F)C(F)(F)C(F)(F)C(F)(F)F)c1	1.26
NS(=O)(=O)c1ccc(NC(=O)C(F)(F)C(F)(F)C(F)(F)C(F)(F)C(F)(F)C(F)(F)C(F)(F)C(F)(F)F)c(I)c1	0.48
NS(=O)(=O)c1cccc(NS(=O)(=O)c2ccc(NC(=O)c3c(F)c(F)c(F)c(F)c3F)cc2)c1	0.90
NS(=O)(=O)c1ccc(CNS(=O)(=O)C(F)(F)C(F)(F)C(F)(F)C(F)(F)C(F)(F)C(F)(F)C(F)(F)C(F)(F)F)cc1	0.00
NS(=O)(=O)c1cc(S(N)(=O)=O)c(NS(=O)(=O)c2c(F)c(F)c(F)c(F)c2F)cc1Cl	-0.52
